Molecular target: T1, Formyl-Peptide Receptor 1 (UniProt P21462 1-350, limits assumed)
T1 sequence (looked up): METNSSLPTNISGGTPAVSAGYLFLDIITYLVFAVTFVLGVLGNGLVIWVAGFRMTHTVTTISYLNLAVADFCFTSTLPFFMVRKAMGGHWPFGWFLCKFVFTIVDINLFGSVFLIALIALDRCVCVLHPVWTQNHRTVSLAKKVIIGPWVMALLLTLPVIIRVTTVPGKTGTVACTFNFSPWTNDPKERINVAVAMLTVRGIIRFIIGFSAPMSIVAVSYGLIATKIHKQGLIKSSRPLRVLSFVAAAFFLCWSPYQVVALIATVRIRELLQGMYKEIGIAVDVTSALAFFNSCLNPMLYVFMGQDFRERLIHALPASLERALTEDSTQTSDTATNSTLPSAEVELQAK
Assay: cell-based or functional assay
Bridges are numbered along the chain shown (N, C = ends). [ ]: non-standard residue; d: D form. dPro(4S-NH2) = N[C@@H]1CN[C@@H](C(=O)O)C1; dTic = O=C(O)[C@H]1Cc2ccccc2CN1
endpoint.label: β-Arrestin IC50 (nM)
State just the number; it will be interpreted in nM.

## Task Supply β-Arrestin IC50 value. Item: cyclo(YHKCWG[dA]WTICYEK[dP]P) (disulfide 4-11; SMILES CC[C@H](C)[C@@H]1NC(=O)[C@H]([C@@H](C)O)NC(=O)[C@H](Cc2c[nH]c3ccccc23)NC(=O)[C@@H](C)NC(=O)CNC(=O)[C@H](Cc2c[nH]c3ccccc23)NC(=O)[C@@H]2CSSC[C@H](NC1=O)C(=O)N[C@@H](Cc1ccc(O)cc1)C(=O)N[C@@H](CCC(=O)O)C(=O)N[C@@H](CCCCN)C(=O)N1CCC[C@@H]1C(=O)N1CCC[C@H]1C(=O)N[C@@H](Cc1ccc(O)cc1)C(=O)N[C@@H](Cc1c[nH]cn1)C(=O)N[C@@H](CCCCN)C(=O)N2) [cyclo(-Tyr-His-Lys-Cys-Trp-Gly-^DAla-Trp-Thr-Ile-Cys-Tyr-Glu-Lys-^DPro-Pro-)]
## Result 69

## Task Return β-Arrestin IC50 (reported value) for this binder: cyclo(YHKCHG[dP]WTICYEK[dPro(4S-NH2)]P) (disulfide 4-11) [cyclo(-Tyr-His-Lys-Cys-His-Gly-^DPro-Trp-Thr-Ile-Cys-Tyr-Glu-Lys-^DPro((4S)NH2)-Pro-)]
## Result 41

## Task Please list β-Arrestin IC50 recorded for the binder cyclo(YHACWG[dP]WTICYTK[dP]P) (disulfide 4-11; SMILES CC[C@H](C)[C@@H]1NC(=O)[C@H]([C@@H](C)O)NC(=O)[C@H](Cc2c[nH]c3ccccc23)NC(=O)[C@H]2CCCN2C(=O)CNC(=O)[C@H](Cc2c[nH]c3ccccc23)NC(=O)[C@@H]2CSSC[C@H](NC1=O)C(=O)N[C@@H](Cc1ccc(O)cc1)C(=O)N[C@@H]([C@@H](C)O)C(=O)N[C@@H](CCCCN)C(=O)N1CCC[C@@H]1C(=O)N1CCC[C@H]1C(=O)N[C@@H](Cc1ccc(O)cc1)C(=O)N[C@@H](Cc1c[nH]cn1)C(=O)N[C@@H](C)C(=O)N2) [cyclo(-Tyr-His-Ala-Cys-Trp-Gly-^DPro-Trp-Thr-Ile-Cys-Tyr-Thr-Lys-^DPro-Pro-)]
## Result 202

## Task Output measured β-Arrestin IC50 for this item: cyclo(YHKCHG[dTic]WTICYEK[dP]P) (disulfide 4-11; SMILES CC[C@H](C)[C@@H]1NC(=O)[C@H]([C@@H](C)O)NC(=O)[C@H](Cc2c[nH]c3ccccc23)NC(=O)[C@H]2Cc3ccccc3CN2C(=O)CNC(=O)[C@H](Cc2c[nH]cn2)NC(=O)[C@@H]2CSSC[C@H](NC1=O)C(=O)N[C@@H](Cc1ccc(O)cc1)C(=O)N[C@@H](CCC(=O)O)C(=O)N[C@@H](CCCCN)C(=O)N1CCC[C@@H]1C(=O)N1CCC[C@H]1C(=O)N[C@@H](Cc1ccc(O)cc1)C(=O)N[C@@H](Cc1c[nH]cn1)C(=O)N[C@@H](CCCCN)C(=O)N2) [cyclo(-Tyr-His-Lys-Cys-His-Gly-^DTic-Trp-Thr-Ile-Cys-Tyr-Glu-Lys-^DPro-Pro-)]
## Result 21
